Source of measurements: patent US20240199724A1

# experimental_target: T1, US28 of HCMV strain DB with C-terminal 6His tag, on CHO-US28-A1 cells (human cytomegalovirus (HCMV) strain DB, UniProt P69332 1-354)
# T1 chain: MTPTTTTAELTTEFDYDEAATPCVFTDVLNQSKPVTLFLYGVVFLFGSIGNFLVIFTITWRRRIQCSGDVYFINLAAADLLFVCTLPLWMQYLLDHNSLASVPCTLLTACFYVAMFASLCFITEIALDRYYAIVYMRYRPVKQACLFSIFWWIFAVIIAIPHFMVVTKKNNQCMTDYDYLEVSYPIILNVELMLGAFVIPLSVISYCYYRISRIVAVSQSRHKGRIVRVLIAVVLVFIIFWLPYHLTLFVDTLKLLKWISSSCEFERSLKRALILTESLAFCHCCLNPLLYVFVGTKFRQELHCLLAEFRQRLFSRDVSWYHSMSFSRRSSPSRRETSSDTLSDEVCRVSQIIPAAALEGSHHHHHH
# measurement_protocol: flow cytometry, CHO-US28 (DB) cells against control CHO cells, background subtracted
quantity: Binding specificity comparative to the specificity displayed by VUN100 (ratio)
Response body: numeric value in ratio, unit text excluded.

Please review the entries below; each comes with its answer.
binder	recorded_measurement
US28-13-5G6-1D3 antibody (antibody, V domains shown, also called US28-13-5G6-1D3 Ab; US28-13-5G6-1D3 rAb) VH: EVKLVESGGGLVQPGGSLRLACATSGFTFTDYYMSWVRQPPGKALEWLGFIRSKANGYTTEYSASVKGRFTISRDNSQSILYLQMNTLRSEDSATYYCARDERRTAWLAYWGQGTLVTVSA VL: DVLMTQTPLSLPVSLGDQASISCRSSQSIVHSNGNTYLDWYLQKPGQSPKLLIYKVSNRFSGVPDRFSGSGSGTDFTLKISRVEAEDLGVYYCFQGSHVPTWTFGGGTKLEIKR	1.65
US28-14-4E4-1E8 antibody (antibody, mouse IgG1, kappa, V domains shown) VH: EVKLVESGGDLVKPGGSLKLSCAASGFTFSSYAMSWVRQTPEKRLEWVASISSGGRTYYPDSVKGRFTISRDNARNILYLQMSSLRSEDTAIYYCARGGTRHSYGNGFDYWGQGTTLTVSS VL: QIVLSQSPTIMSASPGEKVTMTCSASSSVSYMHWYQQKSGTSPKRWIYDSSKLASGVPARFSGSGSGTSYSLTISSMEAEDAATYYCQQWTSNPPITFGAGTKLELKR	4.6
US28-13-1H3-1A10 antibody (antibody, mouse IgG1, kappa, V domains shown, also called 14-1H3-1A10; 14-IH3-IA10) VH: EVKLVESGGVLVKPGGSLKFSCAASGFTLSSHALSWVRQTPEKRLEWVASISSRGRTYYPDSVKGRFTVSRDNARNILYLQVSSLRSEDTAMYYCTRGGTHYSYGNGFDFWGQGTTLTVSS VL: QIVLTQSPAIMSASPGEKVTMTCSVSSSVSYMHWYQQKSGTSPKRWIYDTSKLASGVPARFSGSGSGTSYSLTISTMEAEDAATYYCQQWSNNPPITFGAGTKLELKR	2.29

Now, please, on to the next binder.
Binding specificity comparative to the specificity displayed by VUN100 lookup needed for US28-13-1C10-1C10 antibody (antibody, mouse IgG1, kappa, V domains shown) VH: EVKLVESGGVLVKPGGSLKFSCAASGFTFSSHALSWVRQTPEKRLEWVASISSRGRTYYPDSVKGRFTVSRDNARNILYLQVSSLRSEDTAMYYCTRGGTHYSYGNGFDFWGQGTTLTVSS VL: QIVLTQSPAIMSASPGEKVTMTCSVSSSVSYMHWYQQKSGTSPKRWIYDTSKLASGVPARFSGSGSGTSYSLTISTMEAEDAATYYCQQWSNNPPITFGAGTKLELKR , thanks.
1.74
